biological target: KDR (human, UniProt P35968 20-1356); experiment: cell-based or functional assay
Sequence (P35968 20-1356): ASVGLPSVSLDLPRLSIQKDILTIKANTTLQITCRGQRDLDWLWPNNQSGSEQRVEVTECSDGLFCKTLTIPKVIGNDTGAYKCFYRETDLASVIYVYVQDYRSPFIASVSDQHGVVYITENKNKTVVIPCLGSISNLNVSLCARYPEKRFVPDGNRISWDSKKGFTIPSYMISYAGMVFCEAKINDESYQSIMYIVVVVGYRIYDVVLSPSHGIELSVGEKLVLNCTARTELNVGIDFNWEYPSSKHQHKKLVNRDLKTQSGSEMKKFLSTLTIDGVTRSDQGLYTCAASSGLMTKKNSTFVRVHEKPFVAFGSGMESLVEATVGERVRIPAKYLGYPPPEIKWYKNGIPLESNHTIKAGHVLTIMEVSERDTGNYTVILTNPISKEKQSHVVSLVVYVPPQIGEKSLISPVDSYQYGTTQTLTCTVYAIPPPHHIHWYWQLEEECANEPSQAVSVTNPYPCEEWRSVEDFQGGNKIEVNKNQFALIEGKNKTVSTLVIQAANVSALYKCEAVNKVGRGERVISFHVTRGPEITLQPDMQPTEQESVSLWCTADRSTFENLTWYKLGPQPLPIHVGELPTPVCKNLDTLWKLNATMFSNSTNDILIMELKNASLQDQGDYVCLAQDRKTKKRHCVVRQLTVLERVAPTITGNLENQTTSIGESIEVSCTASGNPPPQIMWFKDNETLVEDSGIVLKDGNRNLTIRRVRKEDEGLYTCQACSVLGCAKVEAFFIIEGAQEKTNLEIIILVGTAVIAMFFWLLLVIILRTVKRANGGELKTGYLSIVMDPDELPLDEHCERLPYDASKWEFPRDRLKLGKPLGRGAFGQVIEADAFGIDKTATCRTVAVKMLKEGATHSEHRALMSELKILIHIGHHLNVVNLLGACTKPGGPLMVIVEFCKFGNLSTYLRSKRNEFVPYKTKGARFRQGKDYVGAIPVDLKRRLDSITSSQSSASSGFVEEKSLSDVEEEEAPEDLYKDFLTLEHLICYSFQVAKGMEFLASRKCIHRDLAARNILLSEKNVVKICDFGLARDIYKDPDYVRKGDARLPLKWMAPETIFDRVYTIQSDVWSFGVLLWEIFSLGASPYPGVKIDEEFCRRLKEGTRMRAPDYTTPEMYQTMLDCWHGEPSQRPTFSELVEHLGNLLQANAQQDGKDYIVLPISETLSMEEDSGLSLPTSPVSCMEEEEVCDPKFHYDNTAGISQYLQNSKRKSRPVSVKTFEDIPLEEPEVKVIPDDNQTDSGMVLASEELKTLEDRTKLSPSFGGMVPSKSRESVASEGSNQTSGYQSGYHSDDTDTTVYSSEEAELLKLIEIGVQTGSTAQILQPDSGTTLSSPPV
Recorded Activity at 133 nM (% Inhibition), 24-hour Pre-incubation at 37° C., Average for the following binders
PROPERTY_LABEL: Activity at 133 nM (% Inhibition), 24-hour Pre-incubation at 37° C., Average (%)

>>> obs_value("33C3 (antibody, V domains shown) VH: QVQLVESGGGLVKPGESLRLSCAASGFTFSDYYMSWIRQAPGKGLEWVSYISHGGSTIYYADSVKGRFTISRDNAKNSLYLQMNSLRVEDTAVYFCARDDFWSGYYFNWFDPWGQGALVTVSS VL: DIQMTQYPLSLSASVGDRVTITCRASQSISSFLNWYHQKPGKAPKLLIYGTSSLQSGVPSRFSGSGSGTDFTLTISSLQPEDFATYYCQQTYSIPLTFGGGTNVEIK")
67
>>> obs_value("21H9 (antibody, V domains shown) VH: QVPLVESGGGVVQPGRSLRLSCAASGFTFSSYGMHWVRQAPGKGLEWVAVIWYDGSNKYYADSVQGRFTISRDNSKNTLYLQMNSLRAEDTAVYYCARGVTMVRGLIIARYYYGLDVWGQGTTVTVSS VL: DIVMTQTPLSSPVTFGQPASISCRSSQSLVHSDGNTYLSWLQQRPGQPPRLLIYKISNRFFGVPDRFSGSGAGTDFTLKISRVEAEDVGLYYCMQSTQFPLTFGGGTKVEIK")
-1
>>> obs_value("30F6 (antibody, V domains shown) VH: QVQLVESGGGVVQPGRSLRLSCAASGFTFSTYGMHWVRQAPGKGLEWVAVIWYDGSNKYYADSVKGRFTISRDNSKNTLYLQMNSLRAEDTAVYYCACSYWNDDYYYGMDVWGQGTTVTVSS VL: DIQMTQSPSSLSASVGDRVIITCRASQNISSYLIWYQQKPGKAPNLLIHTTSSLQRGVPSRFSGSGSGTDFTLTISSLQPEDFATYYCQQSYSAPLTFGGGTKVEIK")
55
>>> obs_value("33E1 (antibody, V domains shown) VH: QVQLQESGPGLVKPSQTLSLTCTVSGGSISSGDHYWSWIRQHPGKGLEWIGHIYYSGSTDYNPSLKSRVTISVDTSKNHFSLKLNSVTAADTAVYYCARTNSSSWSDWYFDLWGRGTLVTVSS VL: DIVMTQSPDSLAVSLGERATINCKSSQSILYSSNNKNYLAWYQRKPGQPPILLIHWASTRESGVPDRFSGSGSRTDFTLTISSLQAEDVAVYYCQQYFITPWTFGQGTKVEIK")
77
>>> obs_value("32G7 (antibody, V domains shown) VH: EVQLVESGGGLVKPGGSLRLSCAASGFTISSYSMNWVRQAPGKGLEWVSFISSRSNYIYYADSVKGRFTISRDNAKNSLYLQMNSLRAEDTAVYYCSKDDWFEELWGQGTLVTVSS VL: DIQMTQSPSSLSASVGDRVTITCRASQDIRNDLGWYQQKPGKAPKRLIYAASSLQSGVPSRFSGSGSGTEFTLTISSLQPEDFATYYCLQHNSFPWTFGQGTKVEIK")
57
